Read-out record for human CSNK1D (Homo sapiens (Human)): IC50

{"COMPOUND": "CC1(C)Cc2[nH]c(-c3ccnc(NC(=O)Cc4ccc(F)cc4)c3)c(Nc3ccccc3F)c2C(=O)N1 [Example 86]", "READING_UNIT": "nM", "IC50": 9.48}
{"COMPOUND": "O=C1NC2(CCC2)Cc2[nH]c(-c3ccnc(NC(=O)C(CC(F)F)c4ccc(F)cc4)c3)c(Nc3ccccc3)c21 (single isomer, unassigned; (-)) [Example 56]", "READING_UNIT": "nM", "IC50": 27.9}
{"COMPOUND": "CCC(C(=O)Nc1cc(-c2[nH]c3c(c2Nc2ccccc2)C(=O)N(C)CC3)ccn1)c1ccc(F)cc1 (single isomer, unassigned; (+)) [Example 77]", "READING_UNIT": "nM", "IC50": 4.43}

###

Target: UniProtKB P00533
Sequence (P00533 669-1210): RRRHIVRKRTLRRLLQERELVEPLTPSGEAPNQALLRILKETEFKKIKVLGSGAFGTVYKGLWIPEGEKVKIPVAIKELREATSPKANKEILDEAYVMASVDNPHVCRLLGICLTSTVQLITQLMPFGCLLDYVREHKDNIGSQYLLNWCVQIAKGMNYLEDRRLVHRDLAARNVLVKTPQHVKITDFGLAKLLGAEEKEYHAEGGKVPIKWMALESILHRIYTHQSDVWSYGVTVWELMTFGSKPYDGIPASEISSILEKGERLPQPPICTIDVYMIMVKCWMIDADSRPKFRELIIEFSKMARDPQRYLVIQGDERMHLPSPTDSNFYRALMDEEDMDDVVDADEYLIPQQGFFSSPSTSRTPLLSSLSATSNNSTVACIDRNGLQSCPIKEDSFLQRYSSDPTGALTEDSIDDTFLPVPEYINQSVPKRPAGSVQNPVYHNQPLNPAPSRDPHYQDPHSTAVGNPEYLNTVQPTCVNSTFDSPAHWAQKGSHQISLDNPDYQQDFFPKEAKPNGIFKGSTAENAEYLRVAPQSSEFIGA
Assay: WT-EGFR Kinase Assay (TR-FRET, 2 mM ATP)
Format: biochemical
Conditions: read-out: EGFR Wildtyp- 2 mM ATP IC50 [mol/l] (median)

{"COMPOUND": "CCN1CCc2[nH]c(-c3ccnc(NC(=O)C(C)c4ccc(F)cc4)c3)c(Nc3ccccc3)c2C1=O (single isomer, unassigned) [Example 26]", "IC50": "> 20 µM"}
{"COMPOUND": "CC1Cc2[nH]c(-c3ccnc(NC(=O)C(CC(F)F)c4ccc(F)cc4)c3)c(Nc3ccccc3F)c2C(=O)N1C (single isomer, unassigned; (+)) [Example 105]", "IC50": "> 20 µM"}
{"COMPOUND": "CN1CCc2[nH]c(-c3ccnc(NC(=O)Cc4ccc(F)cc4)c3)c(Nc3ccccc3)c2C1=O [Example 1]", "IC50": "1.2 µM"}

###

Listing of entries alongside the reported pIC50.
Molecular target: UniProtKB P48729
Sequence (P48729 whole entry): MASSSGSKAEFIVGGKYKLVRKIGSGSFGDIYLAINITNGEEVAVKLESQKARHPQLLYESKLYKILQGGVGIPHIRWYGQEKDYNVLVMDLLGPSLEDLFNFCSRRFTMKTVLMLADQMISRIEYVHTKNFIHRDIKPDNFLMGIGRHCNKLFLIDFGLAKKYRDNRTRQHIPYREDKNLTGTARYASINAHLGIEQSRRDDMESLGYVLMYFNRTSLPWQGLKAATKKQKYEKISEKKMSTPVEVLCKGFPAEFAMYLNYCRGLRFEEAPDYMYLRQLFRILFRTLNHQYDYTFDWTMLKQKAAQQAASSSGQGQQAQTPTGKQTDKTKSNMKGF
Experiment: CSNK1A1 Assay 2 (ADP-Glo, 1 μM ATP)
Type: biochemical
Conditions: substrate biotin-Ahx-KRRRAL-pS-VASLPGL, read-out: CSNK1A1 Assay 2 IC50 [mol/l] (median)
pIC50: −log10 of the molar value.

{"COMPOUND": "C[C@@H](C(=O)Nc1cc(-c2[nH]c3c(c2Nc2ccccc2)C(=O)N(C)CC3)ccn1)c1ccc(F)cc1 (single isomer, unassigned)", "pIC50": 7.36}
{"COMPOUND": "CN1CCc2[nH]c(-c3ccnc(NC(=O)Cc4ccccn4)c3)c(Nc3ccccc3)c2C1=O", "pIC50": 8.62}
{"COMPOUND": "CC(C(=O)Nc1cc(-c2[nH]c3c(c2Nc2ccccc2)C(=O)N(C2CC2)CC3)ccn1)c1ccc(F)cc1 (stereo not shown)", "pIC50": 7.81}
{"COMPOUND": "O=C(Cc1ccc(F)cc1)Nc1cc(-c2[nH]c3c(c2Nc2ccccc2)C(=O)NC2(CCC2)C3)ccn1", "pIC50": 8.70}
{"COMPOUND": "CN1C(=O)c2c([nH]c(-c3ccnc(NC(=O)C(CC(F)F)c4ccc(F)cc4)c3)c2Nc2ccccc2F)CC1(C)C (single isomer, unassigned) [Example 47]", "pIC50": 6.79}
{"COMPOUND": "O=C(Cc1ccc(F)cc1)Nc1cc(-c2[nH]c3c(c2Nc2ccccc2Cl)C(=O)NCC3)ccn1", "pIC50": 8.72}
{"COMPOUND": "CN1CCc2[nH]c(-c3ccnc(NC(=O)Cc4cccnc4)c3)c(Nc3ccccc3)c2C1=O", "pIC50": 8.62}
{"COMPOUND": "CN1CCc2[nH]c(-c3ccnc(NC(=O)C(CC(F)F)c4ccccc4)c3)c(Nc3ccccc3)c2C1=O (single isomer, unassigned) [Example 34]", "pIC50": 8.57}
{"COMPOUND": "Cc1ccccc1Nc1c(-c2ccnc(NC(=O)C(C)c3ccc(F)cc3)c2)[nH]c2c1C(=O)NC(C)(C)C2 (racemic) [Example 132]", "pIC50": 7.61}
{"COMPOUND": "CC(C)(O)CN1CCc2[nH]c(-c3ccnc(NC(=O)Cc4ccc(F)cc4)c3)c(Nc3ccccc3)c2C1=O", "pIC50": 7.57}
{"COMPOUND": "CC(C(=O)Nc1cc(-c2[nH]c3c(c2Nc2ccccc2)C(=O)N(C)C(C)C3)ccn1)c1ccc(F)cc1 (single isomer, unassigned; (-)) [Example 94]", "pIC50": 8.36}
{"COMPOUND": "CC1(C)Cc2[nH]c(-c3ccnc(NC(=O)C(CC(F)F)c4ccc(F)cc4)c3)c(Nc3cccc(F)n3)c2C(=O)N1 (racemic) [Example 128]", "pIC50": 8.15}
{"COMPOUND": "CN1CCc2[nH]c(-c3ccnc(NC(=O)C(CCN4CCOCC4)c4ccccc4)c3)c(Nc3ccccc3)c2C1=O (single isomer, unassigned) [Example 31]", "pIC50": 8.41}
